Form field: pEC50 (one value per entry).
Tested on: parasites (ring stage, in human red blood cell culture)
Test: Parasite LDH growth assay (antiparasite potency, Parasite Assay)
Format: cell-based, Plasmodium falciparum
Details: Plasmodium falciparum, Erythrocyte, 72 h, 0.7% rings, 2% haematocrit, 72 hours at 37° C., LDH readout of parasite growth
pEC50: −log10 of the molar value.

| compound | assayed-target | pEC50 |
| --- | --- | --- |
| CC1(C)CC(=O)N(C2CC(C)(C)c3ccc(C(=O)N[C@@H]4c5ccccc5OC[C@H]4O)cc32)C(=N)N1 (stereo partly shown) [Example 101] | parasites (ring stage, in human red blood cell culture) | 7.33 |
| CC(C)[C@]1(C)CC(=O)N([C@@H]2CC(C)(C)Oc3ccc(C(=O)N[C@H]4CCOc5ccccc54)cc32)C(=N)N1 [Example 37A] | parasites (ring stage, in human red blood cell culture) | 7.13 |
| CCC1(CC)CC(=O)N([C@@H]2CCOc3ccc(C(=O)NC4c5ccccc5C(F)(F)C4(C)C)cc32)C(=N)N1 (stereo partly shown) [Example 227] | parasites (ring stage, in human red blood cell culture) | 8.89 |
| CCC1(CC)CC(=O)N([C@H]2c3cc(C(=O)N[C@@H]4c5ccccc5OC[C@@]4(C)O)ccc3CC[C@@H]2OC)C(=N)N1 [Example 247] | parasites (ring stage, in human red blood cell culture) | 8.35 |
| CCC1(CC)CC(=O)N(C2Cc3ccc(C(=O)N[C@@H]4c5ccccc5OC[C@@]4(C)O)cc32)C(=N)N1 (stereo partly shown) [Example 105] | parasites (ring stage, in human red blood cell culture) | 8.06 |
| CC1(C)CC(=O)N([C@@H]2CCOc3ccc(C(=O)N[C@@H]4c5cc(Cl)ccc5OC[C@H]4O)cc32)C(=N)N1 [Example 153] | parasites (ring stage, in human red blood cell culture) | 7.94 |
| CC1(C)CC(=O)N(C2CCS(=O)(=O)c3ccc(C(=O)N[C@@H]4c5ccccc5OC[C@]4(C)O)cc32)C(=N)N1 (stereo partly shown) [Example 229] | parasites (ring stage, in human red blood cell culture) | 7.23 |
| CCC1(CC)CC(=O)N([C@@H]2CCOc3ccc(C(=O)NC(c4ccccc4)C4CCCCC4)cc32)C(=N)N1 (stereo partly shown) [Example 200] | parasites (ring stage, in human red blood cell culture) | 8.54 |
| CCC1(CC)CC(=O)N([C@H]2c3cc(C(=O)N[C@@H]4c5ccccc5OC(C)(C)[C@H]4O)ccc3OC[C@@H]2COC)C(=N)N1 [Example 299] | parasites (ring stage, in human red blood cell culture) | 9.10 |
| CC[C@]1(C)CC(=O)N([C@H]2c3cc(C(=O)N[C@@H]4c5ccccc5C[C@H]4O)ccc3OCC2(C)C)C(=N)N1 [Example 126] | parasites (ring stage, in human red blood cell culture) | 7.84 |
| CC[C@]1(C)CC(=O)N([C@@H]2CCOc3ccc(C(=O)N[C@@H]4c5cc(F)ccc5OC(C)(C)[C@H]4O)cc32)C(=N)N1 [Example 224] | parasites (ring stage, in human red blood cell culture) | 9.52 |
| COC1COc2ccc(C(=O)N[C@@H]3c4ccccc4C[C@@]3(C)O)cc2C1N1C(=N)NC(C)(C)CC1=O (stereo partly shown) [Example 143] | parasites (ring stage, in human red blood cell culture) | 6.75 |
| CCC1(CC)CC(=O)N([C@@H]2CCOc3ccc(C(=O)N[C@H]4C[C@H](C(F)(F)F)Oc5ccccc54)cc32)C(=N)N1 [Example 6A] | parasites (ring stage, in human red blood cell culture) | 8.96 |

---

Form field: log10(EC50) (one value per entry).
Tested on: parasites (ring stage, in human red blood cell culture)
Experiment: Parasite LDH growth assay (antiparasite potency, Parasite Assay)
Type: cell-based, Plasmodium falciparum
Conditions: Plasmodium falciparum, Erythrocyte, 72 h, 0.7% rings, 2% haematocrit, 72 hours at 37° C., LDH readout of parasite growth
experimental-readout: log10(EC50) (log10 of the value in nM)

| compound | recorded-number |
| --- | --- |
| C[C@@H]1C[C@@H](N2C(=N)NC(C)(C)CC2=O)c2cc(C(=O)N[C@@H]3c4ccccc4C[C@H]3O)ccc21 | 1.19 |
| CCC1(CC)CC(=O)N(C2c3cc(C(=O)N[C@@H]4c5ccccc5C[C@H]4O)ccc3OC2(COC)COC)C(=N)N1 (stereo partly shown) | 1.55 |
| CCC1(CC)CC(=O)N([C@@H]2CC3(COC3)Oc3ccc(C(=O)N[C@@H]4c5ccccc5OC(C)(C)[C@H]4O)cc32)C(=N)N1 [Example 24A] | 0.97 |
| CCC1(CC)CC(=O)N([C@@H]2CCCOc3ccc(C(=O)N[C@@H]4c5ccccc5OC[C@@]4(C)O)cc32)C(=N)N1 | 0.95 |
| CC[C@]1(C)CC(=O)N([C@H]2c3cc(C(=O)N[C@@H]4c5ccccc5OC(C)(C)[C@H]4O)ccc3C[C@H]2C)C(=N)N1 | -0.40 |
| CC[C@]1(C)CC(=O)N(C2c3cc(C(=O)N[C@@H]4c5ccccc5C[C@H]4O)ccc3OCC2(C)OC)C(=N)N1 (stereo partly shown) | 1.82 |
| CCC1(CC)CC(=O)N([C@@H]2C[C@@H](COCCOCCOCCNC(=O)OC(C)(C)C)Oc3ccc(C(=O)N[C@H]4CC(C)(C)Oc5ccccc54)cc32)C(=N)N1 | 0.86 |
| CCC1(CC)CC(=O)N([C@H]2c3cc(C(=O)NC4c5ccccc5C(F)(F)[C@@H]4O)ccc3O[C@@]2(C)COC)C(=N)N1 (stereo in doubt) | 2.38 |
| CC[C@]1(C)CC(=O)N([C@@H]2CCOc3ccc(C(=O)N[C@H]4C[C@@H](COC(F)F)Oc5ccccc54)cc32)C(=N)N1 | 0.26 |
| CCC1(CC)CC(=O)N([C@@H]2CCOc3ccc(C(=O)N[C@@H]4c5ccccc5C[C@H]4O)cc32)C(=N)N1 | 0.77 |

---

Test system: parasites (ring stage, in human red blood cell culture)
Experiment: Parasite LDH growth assay (antiparasite potency, Parasite Assay)
Format: cell-based, Plasmodium falciparum
Conditions: Plasmodium falciparum, Erythrocyte, 72 h, 0.7% rings, 2% haematocrit, 72 hours at 37° C., LDH readout of parasite growth
experimental-readout: EC50 (nM)

| molecule | assayed-target | recorded-number |
| --- | --- | --- |
| CC1(C)CC(=O)N([C@@H]2CC(C)(C)Oc3ccc(C(=O)N[C@@H]4c5ccccc5CC4(C)O)cc32)C(=N)N1 (single isomer, unassigned) [Example 54A] | parasites (ring stage, in human red blood cell culture) | 190 |
| CC[C@]1(C)CC(=O)N([C@@H]2CCOc3ccc(C(=O)NC4c5cc(F)ccc5OCC4O)cc32)C(=N)N1 (some centres unmarked) [Example 151] | parasites (ring stage, in human red blood cell culture) | 5.4 |
| CC1(C)CC(=O)N([C@H]2c3cc(C(=O)N[C@@H]4c5ccccc5OC(C)(C)[C@H]4O)ccc3OC2(C)C)C(=N)N1 [Example 182] | parasites (ring stage, in human red blood cell culture) | 6.1 |
| CCC1(CC)CC(=O)N(C2CCCc3ccc(C(=O)N[C@@H]4c5ccccc5OC[C@@]4(C)O)cc32)C(=N)N1 (some centres unmarked) [Example 161] | parasites (ring stage, in human red blood cell culture) | 0.8 |
| CC[C@]1(C)CC(=O)N([C@@H]2c3cc(C(=O)N[C@@H]4c5ccccc5OC(C)(C)[C@H]4O)ccc3C[C@H]2C)C(=N)N1 [Example 167] | parasites (ring stage, in human red blood cell culture) | 250 |
| CCC1(CC)CC(=O)N([C@@H]2CCOc3ccc(C(=O)N[C@H]4c5cc(F)ccc5OC[C@@H]4O)cc32)C(=N)N1 [Example 192] | parasites (ring stage, in human red blood cell culture) | 232 |
| CCC1(CC)CC(=O)N([C@H]2c3cc(C(=O)N[C@H]4c5ccccc5CC[C@@H]4O)ccc3O[C@@]2(C)COC)C(=N)N1 [Example 250] | parasites (ring stage, in human red blood cell culture) | 219 |
| CCC1(CC)CC(=O)N([C@@H]2C[C@H](OC)c3ccc(C(=O)N[C@@H]4c5ccccc5C[C@H]4O)cc32)C(=N)N1 [Example 117] | parasites (ring stage, in human red blood cell culture) | 2.5 |

---

Tested on: parasites (ring stage, in human red blood cell culture)
Test: Parasite LDH growth assay (antiparasite potency, Parasite Assay)
Type: cell-based, Plasmodium falciparum
Conditions: Plasmodium falciparum, Erythrocyte, 72 h, 0.7% rings, 2% haematocrit, 72 hours at 37° C., LDH readout of parasite growth
Description: Assessing Antiparasite Potency in a Parasite LDH Growth Assay (Parasite Assay) The parasite stock was maintained at 4% haematocrit in RPMI-Hepes media buffered with sodium bicarbonate and supplemented with 5% heat inactivated human serum and 0.5% albumax. On the day of assay set up, a blood smear of the parasite culture was Giemsa stained and counted. […]

| compound | EC50 |
| --- | --- |
| CCC1(CC)CC(=O)N([C@@H]2C[C@H](OC)c3ccc(C(=O)N[C@@H]4c5ccccc5OC(C)(C)[C@H]4O)cc32)C(=N)N1 | 0.9 nM |
| CCC1(CC)CC(=O)N([C@@H]2CCOc3ccc(C(=O)N4Cc5ccccc5C4)cc32)C(=N)N1 [Example 66A] | 76 nM |
| CCC1(CC)CC(=O)N(C2c3cc(C(=O)N[C@@H]4c5ccccc5OC[C@@]4(C)O)ccc3OC2(COC)COC)C(=N)N1 (stereo partly drawn) | 75.8 nM |
| CC[C@]1(C)CC(=O)N([C@@H]2C[C@@H](C)c3ccc(C(=O)N[C@@H]4c5ccccc5OC[C@]4(C)O)cc32)C(=N)N1 | 2.1 nM |
| CCC1(CC)CC(=O)N([C@@H]2CCOc3ccc(C(=O)N[C@@H]4c5ccccc5C(F)(F)[C@H]4O)cc32)C(=N)N1 | 11.3 nM |
| C[C@@H]1C[C@@H](N2C(=N)NC(C)(C)CC2=O)c2cc(C(=O)N[C@@H]3c4ccccc4OC[C@]3(C)O)ccc21 | 6.1 nM |
| CC1(C)CC(=O)N([C@@H]2CCc3ccc(C(=O)N[C@H]4CC(C)(C)Oc5ccccc54)cc32)C(=N)N1 | 0.9 nM |
| CCC1(CC)CC(=O)N([C@@H]2c3cc(C(=O)N[C@@H]4c5ccccc5OC(C)(C)[C@H]4O)ccc3OC[C@@]2(C)OC)C(=N)N1 | 100 nM |
| CCC1(CC)CC(=O)N([C@@H]2CCOc3ccc(C(=O)N[C@@H]4c5ccccc5C[C@H]4N)cc32)C(=N)N1 | 19 nM |
| CCC1(CC)CC(=O)N([C@H]2c3cc(C(=O)N[C@@H]4c5ccccc5OC[C@@]4(C)O)ccc3OC[C@@H]2COC)C(=N)N1 | 1.8 nM |
| CCC1(CC)CC(=O)N([C@@H]2C[C@@H](C)Oc3ccc(C(=O)N[C@@H]4c5ccccc5C[C@@]4(C)O)cc32)C(=N)N1 | 2.4 nM |
| CCC1(CC)C[C@@H](N2C(=N)NC(C)(C)CC2=O)c2cc(C(=O)N[C@@H]3c4ccccc4OC[C@H]3O)ccc2O1 [Example 52A] | 14.4 nM |
| CCC1(CC)CC(=O)N(C2CC(C(=O)N(C)C)Oc3ccc(C(=O)N[C@@H]4c5ccccc5OC(C)(C)[C@H]4O)cc32)C(=N)N1 (stereo partly drawn) | 27.4 nM |
| CCC1(CC)CC(=O)N([C@H]2c3cc(C(=O)N[C@@H]4c5ccccc5OC[C@@]4(C)O)ccc3O[C@@]2(C)COC)C(=N)N1 | 1.1 nM |
| CC(C)[C@]1(C)CC(=O)N([C@@H]2CC(C)(C)Oc3ccc(C(=O)N[C@@H]4c5cc(F)ccc5OC(C)(C)[C@H]4O)cc32)C(=N)N1 [Example 41A] | 2.8 nM |
